- Assay Target: D(2) dopamine receptor (Homo sapiens, UniProt P14416)
- Sequence (P14416 whole entry): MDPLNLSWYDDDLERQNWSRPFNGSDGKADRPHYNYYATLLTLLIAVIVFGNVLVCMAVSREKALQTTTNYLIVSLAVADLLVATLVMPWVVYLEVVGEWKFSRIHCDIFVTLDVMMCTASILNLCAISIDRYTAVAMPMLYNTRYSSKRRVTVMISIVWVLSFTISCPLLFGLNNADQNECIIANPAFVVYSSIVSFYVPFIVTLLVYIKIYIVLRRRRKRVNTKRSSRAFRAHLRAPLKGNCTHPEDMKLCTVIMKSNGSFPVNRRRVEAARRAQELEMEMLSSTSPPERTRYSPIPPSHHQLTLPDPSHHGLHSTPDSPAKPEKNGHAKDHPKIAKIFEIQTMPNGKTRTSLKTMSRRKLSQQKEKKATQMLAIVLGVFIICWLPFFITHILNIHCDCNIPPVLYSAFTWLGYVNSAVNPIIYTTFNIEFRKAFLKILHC
# pKi per entry
// scale note: pKi = -log10(conc_M); give the bare number

Past entries and their recorded results:
Data request, read-out pKi, for COc1cccc(C(=O)NC/C=C/CN2CCN(c3cccc(Cl)c3Cl)CC2)c1
7.41

Would you mind doing O=C(NC/C=C/CN1CCN(c2cccc(Cl)c2Cl)CC1)c1cccnc1 as well?
7.71

Would you mind doing O=C(NC/C=C/CN1CCN(c2cccc(Cl)c2Cl)CC1)c1cccc([N+](=O)[O-])c1 as well?
7.66

Would you mind doing O=C(NC/C=C/CN1CCN(c2cccc(Cl)c2Cl)CC1)c1ccc(I)cc1 as well?
7.45

Would you mind doing Nc1cccc(C(=O)NC/C=C/CN2CCN(c3cccc(Cl)c3Cl)CC2)c1 as well?
7.54

Further cases:
Data request, read-out pKi, for O=C(NC/C=C/CN1CCN(c2cccc(Cl)c2Cl)CC1)c1ccc(-c2ncc[nH]2)cc1
8.10

Would you mind doing O=C(NC/C=C/CN1CCN(c2cccc(Cl)c2Cl)CC1)c1ccccc1 as well?
8.54
